In this section, each of the sequences is paired with its reported protease stability score.
- Assay Explanation: protease stability score; higher = more stable; yeast display proteolysis, trypsin and chymotrypsin;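 note: relative to predicted unfolded state with 0 unfolded-like and 1 meaning tenfold more protease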
Measurement Name: protease stability score

[
  {
    "Sequence Chain": "DEEEELARKSLEVWLKSSQTGDENHLEHMFDPNARLNIDGVELIGREHAKIWAKELRIHDIYPRRLRIQGNKLFLDLESDEEYNGKRTHFRRHLVMLKVNGVWIIESMHVE",
    "Measurement Name": "protease stability score",
    "Reported Result": 1.43
  },
  {
    "Sequence Chain": "TEEEELAHHLVRLLIELWRTGDEEILRHLADPNVKLIYGDKTDHGREKSHRWMKELLDRYDHVEIIIRREEVQGEKAHSDVELVVNINGVREVYEVHLHFIVVNGKIREERIEVR",
    "Measurement Name": "protease stability score",
    "Reported Result": 0.989
  },
  {
    "Sequence Chain": "DEDEKIVKHMLEVLIHLILTGDWEMFQKLADPNTRLDINGREQVGWESVTKNLEHMRYHDIRSQHIEIQGNKLRNLTRVDGEVDGVRREIEVHIYSTKINGKWRLTSMQFH",
    "Measurement Name": "protease stability score",
    "Reported Result": 1.1
  },
  {
    "Sequence Chain": "DEDEESSESFYRLWVELFETGNFEILERLFDPHVRIKIGDKHIHGMEEHIRESFHIIERFKGVQIRVDEVRLFDGRMDVHGELIINGQSVRMRIIVRKVNGRWHLTEMILD",
    "Measurement Name": "protease stability score",
    "Reported Result": 1.48
  },
  {
    "Sequence Chain": "TEEEELEEKIARRFLTIWLTGDEERLRELADPNVRLEIDINGVTLEYHGRDELAHMFDHELKKLGFKHLHLESLRVINGVVHSNVRITFNGQERESKIINIVINGRLHTLILRWE",
    "Measurement Name": "protease stability score",
    "Reported Result": 1.41
  },
  {
    "Sequence Chain": "SEDEELARIIMHLLEHATKTGDERILRKLLDPHVKIRVNGKDLIGWEEEHRRHEKLGADHLHLELIFKDWEFVGDYIKVHGEMRVRVNQGDKTDERNYEVRFYLLKVNGRWILESIQIH",
    "Measurement Name": "protease stability score",
    "Reported Result": 2.63
  },
  {
    "Sequence Chain": "DEEEEYYRRAVEIHERVLRTGDWRQLRELMDPRTKIDVGDKSFHGRDTITHWTKEMLEKFGVTKVEFHFDHLEMQGDKANIRGTLQINGQPIDISIHSVKIDGRWLIKFVKID",
    "Measurement Name": "protease stability score",
    "Reported Result": 0.822
  },
  {
    "Sequence Chain": "NEEQKEAEDFMRMVSRIHETGDEDSLRRYFDPNVRIKDENHHLHGWKELIHWTHRVDHIEVRVKNVDIQGDKIHLDGEEIVRIDGVEVRRRVLFILTKVNGRWHIQEIRIE",
    "Measurement Name": "protease stability score",
    "Reported Result": 0.72
  },
  {
    "Sequence Chain": "SEDDRDSKEAKHLLHELIRTGDEDELVKLLDPNMIIIVGDKEYIGWEQAVRLLRELNRRFDHVELRFRDIEIQGEWVDTDIELIYRFDGRETRIDTRFIAYKVDGRWFNHHIEIK",
    "Measurement Name": "protease stability score",
    "Reported Result": 0.582
  }
]

These measurements were taken from the NTF2 design screens of Basanta et al. (2020).
